- Tested on: Mycobacterium tuberculosis Erdman (autoluminescent)
- Measurement Protocol: total FIC90 (Loewe) at 90% inhibition, three-drug combination (log2); higher = more antagonistic
- Stated Conditions: in vitro model: cholesterol-high 0.2 mM; time point: terminal (~4-5 doublings, model-specific)
Classification field: enter class 1 for total FIC90 values not below 0.8, class 0 for values below it.

Worked cases, answers included:
[
  {
    "Molecule": "COc1nc2ccc(Br)cc2cc1[C@@H](c1ccccc1)[C@@](O)(CCN(C)C)c1cccc2ccccc12 [bedaquiline] + CC[C@@H](CO)NCCN[C@@H](CC)CO [ethambutol] + CC(=O)NC[C@H]1CN(c2ccc(N3CCOCC3)c(F)c2)C(=O)O1 [linezolid]",
    "Class": "class 1"
  },
  {
    "Molecule": "CC[C@@H](CO)NCCN[C@@H](CC)CO [ethambutol] + CC(=O)NC[C@H]1CN(c2ccc(N3CCOCC3)c(F)c2)C(=O)O1 [linezolid] + CO[C@H]1/C=C/O[C@@]2(C)Oc3c(C)c(O)c4c(O)c(c(/C=N/N5CCN(C)CC5)c(O)c4c3C2=O)NC(=O)/C(C)=C\\C=C\\[C@H](C)[C@H](O)[C@@H](C)[C@@H](O)[C@@H](C)[C@H](OC(C)=O)[C@@H]1C [rifampicin]",
    "Class": "class 0"
  },
  {
    "Molecule": "CC(=O)NC[C@H]1CN(c2ccc(N3CCOCC3)c(F)c2)C(=O)O1 [linezolid] + O=[N+]([O-])c1cn2c(n1)OC[C@@H](OCc1ccc(OC(F)(F)F)cc1)C2 [pretomanid] + NC(=O)c1cnccn1 [pyrazinamide]",
    "Class": "class 0"
  },
  {
    "Molecule": "COc1nc2ccc(Br)cc2cc1[C@@H](c1ccccc1)[C@@](O)(CCN(C)C)c1cccc2ccccc12 [bedaquiline] + CC(C)/N=c1\\cc2n(-c3ccc(Cl)cc3)c3ccccc3nc-2cc1Nc1ccc(Cl)cc1 [clofazimine] + CO[C@H]1/C=C/O[C@@]2(C)Oc3c(C)c(O)c4c(O)c(c(/C=N/N5CCN(C)CC5)c(O)c4c3C2=O)NC(=O)/C(C)=C\\C=C\\[C@H](C)[C@H](O)[C@@H](C)[C@@H](O)[C@@H](C)[C@H](OC(C)=O)[C@@H]1C [rifampicin]",
    "Class": "class 0"
  }
]

stdin: Textbook exercise: given the entry CC[C@@H](CO)NCCN[C@@H](CC)CO [ethambutol] + NNC(=O)c1ccncc1 [isoniazid] + O=[N+]([O-])c1cn2c(n1)OC[C@@H](OCc1ccc(OC(F)(F)F)cc1)C2 [pretomanid] , state whether its total FIC90 is greater than or equal to 0.8.
stdout: class 1

stdin: Textbook exercise: given the entry COc1nc2ccc(Br)cc2cc1[C@@H](c1ccccc1)[C@@](O)(CCN(C)C)c1cccc2ccccc12 [bedaquiline] + NC(=O)c1cnccn1 [pyrazinamide] + CO[C@H]1/C=C/O[C@@]2(C)Oc3c(C)c(O)c4c(O)c(c(/C=N/N5CCN(C)CC5)c(O)c4c3C2=O)NC(=O)/C(C)=C\C=C\[C@H](C)[C@H](O)[C@@H](C)[C@@H](O)[C@@H](C)[C@H](OC(C)=O)[C@@H]1C [rifampicin] , state whether its total FIC90 is greater than or equal to 0.8.
stdout: class 0

stdin: Textbook exercise: given the entry NNC(=O)c1ccncc1 [isoniazid] + O=[N+]([O-])c1cn2c(n1)OC[C@@H](OCc1ccc(OC(F)(F)F)cc1)C2 [pretomanid] + CO[C@H]1/C=C/O[C@@]2(C)Oc3c(C)c(O)c4c(O)c(c(/C=N/N5CCN(C)CC5)c(O)c4c3C2=O)NC(=O)/C(C)=C\C=C\[C@H](C)[C@H](O)[C@@H](C)[C@@H](O)[C@@H](C)[C@H](OC(C)=O)[C@@H]1C [rifampicin] , state whether its total FIC90 is greater than or equal to 0.8.
stdout: class 0

stdin: Textbook exercise: given the entry COc1nc2ccc(Br)cc2cc1[C@@H](c1ccccc1)[C@@](O)(CCN(C)C)c1cccc2ccccc12 [bedaquiline] + COc1c(N2C[C@@H]3CCCN[C@@H]3C2)c(F)cc2c(=O)c(C(=O)O)cn(C3CC3)c12 [moxifloxacin] + NC(=O)c1cnccn1 [pyrazinamide] , state whether its total FIC90 is greater than or equal to 0.8.
stdout: class 0

stdin: Textbook exercise: given the entry CC[C@@H](CO)NCCN[C@@H](CC)CO [ethambutol] + NNC(=O)c1ccncc1 [isoniazid] + CC(=O)NC[C@H]1CN(c2ccc(N3CCOCC3)c(F)c2)C(=O)O1 [linezolid] , state whether its total FIC90 is greater than or equal to 0.8.
stdout: class 1

stdin: Textbook exercise: given the entry COc1nc2ccc(Br)cc2cc1[C@@H](c1ccccc1)[C@@](O)(CCN(C)C)c1cccc2ccccc12 [bedaquiline] + CC[C@@H](CO)NCCN[C@@H](CC)CO [ethambutol] + NNC(=O)c1ccncc1 [isoniazid] , state whether its total FIC90 is greater than or equal to 0.8.
stdout: class 1

stdin: Textbook exercise: given the entry COc1nc2ccc(Br)cc2cc1[C@@H](c1ccccc1)[C@@](O)(CCN(C)C)c1cccc2ccccc12 [bedaquiline] + CC[C@@H](CO)NCCN[C@@H](CC)CO [ethambutol] + O=[N+]([O-])c1cn2c(n1)OC[C@@H](OCc1ccc(OC(F)(F)F)cc1)C2 [pretomanid] , state whether its total FIC90 is greater than or equal to 0.8.
stdout: class 1

----------
- Test system: Mycobacterium tuberculosis Erdman (autoluminescent)
- Measurement Protocol: GRinf, maximum normalised growth rate inhibition (three-drug combination) (unitless (-1 to 1)); higher = less effect (negative = killing)
- Stated Conditions: in vitro model: standard 7H9 glycerol; time point: constant = terminal
Reported GRinf by item:
Please reply with the value in numeric form only.

Completed entries (count: 2):
[
  {
    "Compound": "CC(C)/N=c1\\cc2n(-c3ccc(Cl)cc3)c3ccccc3nc-2cc1Nc1ccc(Cl)cc1 [clofazimine] + NC(=O)c1cnccn1 [pyrazinamide] + CO[C@H]1/C=C/O[C@@]2(C)Oc3c(C)c(O)c4c(O)c(c(/C=N/N5CCN(C6CCCC6)CC5)c(O)c4c3C2=O)NC(=O)/C(C)=C\\C=C\\[C@H](C)[C@H](O)[C@@H](C)[C@@H](O)[C@@H](C)[C@H](OC(C)=O)[C@@H]1C [rifapentine]",
    "Readout Name": "GRinf",
    "Data Value": -0.0744
  },
  {
    "Compound": "COc1nc2ccc(Br)cc2cc1[C@@H](c1ccccc1)[C@@](O)(CCN(C)C)c1cccc2ccccc12 [bedaquiline] + NNC(=O)c1ccncc1 [isoniazid] + CO[C@H]1/C=C/O[C@@]2(C)Oc3c(C)c(O)c4c(O)c(c(/C=N/N5CCN(C6CCCC6)CC5)c(O)c4c3C2=O)NC(=O)/C(C)=C\\C=C\\[C@H](C)[C@H](O)[C@@H](C)[C@@H](O)[C@@H](C)[C@H](OC(C)=O)[C@@H]1C [rifapentine]",
    "Readout Name": "GRinf",
    "Data Value": -0.00945
  }
]

Read the next record carefully.
stdin: Answer with the recorded GRinf for the compound listed here: CC(C)/N=c1\cc2n(-c3ccc(Cl)cc3)c3ccccc3nc-2cc1Nc1ccc(Cl)cc1 [clofazimine] + CC(=O)NC[C@H]1CN(c2ccc(N3CCOCC3)c(F)c2)C(=O)O1 [linezolid] + NC(=O)c1cnccn1 [pyrazinamide]
stdout: -0.131

----------
- Tested on: Mycobacterium tuberculosis Erdman (autoluminescent)
- Measurement Protocol: AUC25, normalised area under dose response up to IC25 (three-drug combination) (fraction (0-1)); higher = more potent at low dose
- Stated Conditions: in vitro model: dormancy (butyrate + nitrate, low O2); time point: terminal (~4-5 doublings, model-specific)
Reported AUC25 by item:
Please reply with the value in numeric form only.

Completed entries (count: 2):
[
  {
    "Compound": "COc1nc2ccc(Br)cc2cc1[C@@H](c1ccccc1)[C@@](O)(CCN(C)C)c1cccc2ccccc12 [bedaquiline] + COc1c(N2C[C@@H]3CCCN[C@@H]3C2)c(F)cc2c(=O)c(C(=O)O)cn(C3CC3)c12 [moxifloxacin] + NC(=O)c1cnccn1 [pyrazinamide]",
    "Data Value": 0.0596
  },
  {
    "Compound": "NNC(=O)c1ccncc1 [isoniazid] + O=[N+]([O-])c1cn2c(n1)OC[C@@H](OCc1ccc(OC(F)(F)F)cc1)C2 [pretomanid] + CO[C@H]1/C=C/O[C@@]2(C)Oc3c(C)c(O)c4c(O)c(c(/C=N/N5CCN(C)CC5)c(O)c4c3C2=O)NC(=O)/C(C)=C\\C=C\\[C@H](C)[C@H](O)[C@@H](C)[C@@H](O)[C@@H](C)[C@H](OC(C)=O)[C@@H]1C [rifampicin]",
    "Data Value": 0.0408
  }
]

Read the next record carefully.
stdin: Answer with the recorded AUC25 for the compound listed here: CC(C)/N=c1\cc2n(-c3ccc(Cl)cc3)c3ccccc3nc-2cc1Nc1ccc(Cl)cc1 [clofazimine] + NC(=O)c1cnccn1 [pyrazinamide] + CO[C@H]1/C=C/O[C@@]2(C)Oc3c(C)c(O)c4c(O)c(c(/C=N/N5CCN(C6CCCC6)CC5)c(O)c4c3C2=O)NC(=O)/C(C)=C\C=C\[C@H](C)[C@H](O)[C@@H](C)[C@@H](O)[C@@H](C)[C@H](OC(C)=O)[C@@H]1C [rifapentine]
stdout: 0.0573

meta.source: the supplement of paper PMC8617591
